All figures here come from PubChem BioAssay (NCI).

# System: RXF 393 renal
# testName: NCI-60 one-dose screen, 48 h (100 = growth as untreated, 0 = no growth, -100 = all killed)
# setupConditions: 10 µM unless noted
About 83,000 compounds went through this panel and 20% of them were active in at least one assay; those are over-represented in the sample as a whole.
Let's look at some compounds and their measured growth.
Form entry: value (%) — number only.

Sample records with growth:
Cc1ccc(Nc2cc(=S)nc(N)[nH]2)cc1C    107
CCc1c(Nc2ccc(C)cc2)nc(N)[nH]c1=O    109
Cc1cc2cc3cc(C)c(N)cc3[n+](C)c2cc1N    26.3

Record `O=CNc1cc(Cl)cc(Cl)c1` , field growth: 113

Record `CCCCCCCC(=O)Nc1nc2[nH]c(CN3CCN(Cc4cccc(I)c4)CC3)c(CN3CCN(Cc4cccc(I)c4)CC3)c2c(=O)[nH]1` , field growth: -96.1

Record CCCC1C(C(=O)OCC)=C(N)Oc2cc(O)ccc21 (stereo unspecified) , field growth: 131
